Tested on: Trypanosoma cruzi
test-description: Trypanosoma cruzi phosphomannomutase and mannose-1-phosphate guanylyltransferase assay
Type: functional
Parameters: scale not given: direction of the effect not stated beside the values
study-conditions: 10 µM
outcome-measure: Percent Effect (%)
Output spec: scalar in %, unitless text.

Example cases with answers are listed next.
>  <compound>
COc1ccc(CNC(=O)CNc2cc3c(cc2Cl)OCCCO3)cc1

>  <unit-text>
%

>  <Percent Effect>
-2.25

$$$$
>  <compound>
Cc1cc(C)c2nc(CN3CCOC(CCO)C3)cc(O)c2c1 (stereo not drawn)

>  <unit-text>
%

>  <Percent Effect>
0.965

$$$$
>  <compound>
CN(C)CCN(C)C(=O)c1cnc2c(c1)nc(-c1ccccc1Cl)n2C

>  <unit-text>
%

>  <Percent Effect>
-0.88

$$$$
>  <compound>
COc1ccc2cc(C3CN(C(=O)C4CCOCC4)CCO3)ccc2c1 (stereo not drawn)

>  <unit-text>
%

>  <Percent Effect>
1.93

$$$$
>  <compound>
CS(=O)(=O)N1CCC(C(=O)NC(Cc2ccsc2)c2nccs2)CC1 (stereo not drawn)

>  <unit-text>
%

>  <Percent Effect>
-3.36

$$$$
>  <compound>
COc1ccc(OC)c(NC(=O)N2CCCC2c2ccco2)c1 (stereo not drawn)

>  <unit-text>
%

>  <Percent Effect>
-0.888

$$$$

Documented Percent Effect of "Cn1ccnc1CN1CCN(CC(=O)NCC(F)(F)F)CC1" : -0.66

Kindly note the recorded Percent Effect for "O=C(NCCCN1CCOCC1)Nc1cnc2cc(Cl)ccc2c1O" , which is -3.16

Consider "CCC1=N[C@@]2(CC[C@@H]3CN(Cc4ccccc4F)C[C@@H]32)C(=O)N1CC" . Its measured Percent Effect is -1.17

Kindly note the recorded Percent Effect for C=C(C)COCCNC(=O)C1CCCN1C(C)=O (stereo not drawn) , which is 7.3

Percent Effect for COc1ccccc1CC(=O)N1CCCC(n2nc(C)cc2C)C1 (stereo not drawn) is -1.23

Recorded Percent Effect (compound "COCc1ccccc1CNCc1c(C)nn(C)c1N(C)C" ): -0.849

So for Cc1cc(C)n(CC2CCCN2C(=O)c2ccc3c(c2)nnn3C)n1 (stereo not drawn) , the logged Percent Effect turned out to be -2.94

Kindly note the recorded Percent Effect for "COc1cc(N2CC[C@H](O)[C@@H]2Cc2cnn(C)c2)ncn1" , which is -3.62

Record summary for "CCOCC(=O)N1C[C@@H]2COC[C@H](c3nc(C)no3)[C@@H]2C1" : reported Percent Effect = 0.586

Query "CC(C)c1nc2c(n1C)CCN(CC(=O)Nc1ccc(Cl)cn1)C2" yields Percent Effect of 0.686

GET /value?item= "Cn1cc(CN2CCc3nc(-c4ccccn4)nc(O)c3C2)cn1" &field=Percent Effect returns 6.69

The compound listed as "O=C(CCN1CCC(C(=O)c2cc(F)ccc2F)CC1)NC1CC1" shows Percent Effect equal to -0.0974

Reported Percent Effect ( CN(CCCC#N)C1CCCN(Cc2noc(C3CC3)n2)C1 (stereo not drawn) ) = 0.68

Value of measured Percent Effect for the entry "O=C(C1CCOCC1)N1CCc2ncnc(-c3ccc(F)cc3)c2CC1" : -1.35

Percent Effect recorded for this compound, COc1c(C)cnc(CN2CCOC(Cn3nc(C)nc3C)C2)c1C (stereo not drawn) , is 1.6
